TEST METHOD NOTES: capillary depletion analysis after in situ brain perfusion
Type: in vivo, mouse
TEST PARAMETERS: male, BALB/c, mouse, endothelial cell-enriched pellet (capillary depletion), pellet; 10 mins; uncorrected; given as fraction; read-out: tissue or CSF to plasma ratio (mean)
MEASUREMENT NAME: Kp at 10 min
One number for each entry.

Prompt: Consider the molecule OC[C@H]1O[C@@](CO)(O[C@H]2O[C@H](CO)[C@@H](O)[C@H](O)[C@H]2O)[C@@H](O)[C@@H]1O [[^14C]-sucrose, reference compound] and give its measured Kp at 10 min.
Response: 0.00461

----------
System: [3H]-ADMA transport across the blood-brain and blood-CSF barriers
TEST METHOD NOTES: cross-inhibition, in situ perfusion: [^3H]-ADMA with 100 μM unlabelled L-arginine
Type: in vivo, mouse
TEST PARAMETERS: male, Balb/c, mouse, caudate nucleus, other: in situ brain perfusion, with 100 µM unlabelled L-arginine, [3H] ADMA + [14C] Sucrose + 100uM Arg, 10 mins, Balb/c ♂, 5ml/min; mean; read-out: uptake into caudate nucleus
Where a name gives a salt, the structure may show the parent alone.
MEASUREMENT NAME: Kp at 10 min, 62.5 nM
Answers are plain numbers.

Prompt: Consider the compound CN(C)C(N)=NCCC[C@H](N)C(=O)O [ADMA, N^G,N^G-dimethylarginine dihydrochloride] and give its measured Kp at 10 min, 62.5 nM.
Response: 0.0664

----------
TEST METHOD NOTES: in situ brain/choroid plexus perfusion: CNS uptake of [^3H]-arginine, [^3H]-ADMA and [^14C]-sucrose (multiple-time and single-time uptake analysis)
TEST PARAMETERS: male, BALB/c, mouse, pineal gland, [3H] ADMA and [14C] Sucrose uptake, CONTROL, 10 mins, 5ml/min; mean
Where a name gives a salt, the structure may show the parent alone.
MEASUREMENT NAME: Kp at 10 min
Numbers only.

Prompt: Consider the compound CN(C)C(N)=NCCC[C@H](N)C(=O)O [ADMA, N^G,N^G-dimethylarginine dihydrochloride] and give its measured Kp at 10 min.
Response: 2.56

----------
TEST METHOD NOTES: in situ brain/choroid plexus perfusion: CNS uptake of [^3H]-arginine, [^3H]-ADMA and [^14C]-sucrose (multiple-time and single-time uptake analysis)
TEST PARAMETERS: male, BALB/c, mouse, pons, [3H] ADMA and [14C] Sucrose uptake, 2.5 mins, 5ml/min; individual mouse
Structures can show the parent of a compound that is named as a salt.
MEASUREMENT NAME: Kp at […]
Answers are plain numbers.

Prompt: Consider the compound CN(C)C(N)=NCCC[C@H](N)C(=O)O [ADMA, N^G,N^G-dimethylarginine dihydrochloride] and give its measured Kp at […].
Response: 0.0924

----------
Tested on: [3H]-ADMA transport across the blood-brain and blood-CSF barriers
TEST METHOD NOTES: self-inhibition, in situ perfusion: [^3H]-ADMA with 100 μM unlabelled ADMA
Type: in vivo, mouse
TEST PARAMETERS: male, Balb/c, mouse, pons, other: in situ brain perfusion, with unlabelled ADMA 100 µM, Difference (ADMA minus Sucrose), pons, + 100uM un-labelled ADMA, 10 mins, Balb/c ♂, 5ml/min; mean
Counter-ions that a name gives are not always drawn.
MEASUREMENT NAME: Kp at 10 min, 62.5 nM
Give bare numbers.

Prompt: Consider the molecule CN(C)C(N)=NCCC[C@H](N)C(=O)O [ADMA, N^G,N^G-dimethylarginine dihydrochloride] and give its measured Kp at 10 min, 62.5 nM.
Response: 0.0724
